experiment: modulators of MEP2-GFP levels in yeast, primary screen, S. cerevisiae, multiplex flow cytometry (AID 1867);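 further: median GFP channel fluorescence of barcode-gated MEP2-GFP cells measured by flow cytometry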; settings: S. cerevisiae MEP2-GFP strain, 3 h, at 10 µM, hits give high values
Records with an inconclusive call do not appear.
The reader will find reported GFP response vs DMSO values listed item by item below.
The reply should be a number in %, with the unit left off.

Known GFP response vs DMSO results, listed for orientation:
[[record]]
compound = "COc1ccc(CN2CC3CC(C2)c2cccc(=O)n2C3)cc1OC (configuration not stated)"
endpointvalue = 101

[[record]]
compound = "CC1CCC[C@H](O)CCCCCc2cc(O)cc(O)c2C(=O)O1 (some centres not stated)"
endpointvalue = 99.7

[[record]]
compound = "COP(=S)(OC)SCN1C(=O)c2ccccc2C1=O"
endpointvalue = 92.7

[[record]]
compound = "CC(=O)OC1C2CCC1C(N1CCCC1)CC2 (configuration not stated)"
endpointvalue = 106

[[record]]
compound = "C[C@]12CC[C@@H](O)C[C@@H]1CC[C@@H]1[C@@H]2CC[C@]2(C)C(=O)CC[C@@H]12"
endpointvalue = 99.7


Given the compound C[N+](C)(C)Cc1ccccc1 , what is its reported GFP response vs DMSO?
105

Given the compound COc1ccc(OC)c(C(O)C(C)N)c1 (configuration not stated) , what is its reported GFP response vs DMSO?
94.1

Given the compound OC(c1ccccc1)(c1ccccc1)C1CCNCC1 , what is its reported GFP response vs DMSO?
110

Given the compound C#CCN(C)C(C)Cc1ccccc1 (configuration not stated) , what is its reported GFP response vs DMSO?
108

Given the compound C[C@H]1OC[C@@H](C[N+](C)(C)C)O1 , what is its reported GFP response vs DMSO?
98.7

Given the compound CC(C)C[C@H]1C(=O)N2CCCC2[C@]2(O)O[C@](NC(=O)[C@@H]3C=C4c5cccc6[nH]cc(c56)CC4N(C)C3)(C(C)C)C(=O)N12 (some centres not stated) , what is its reported GFP response vs DMSO?
116

Given the compound Cc1cc(Cl)ccc1OC(C)C(=O)O (configuration not stated) , what is its reported GFP response vs DMSO?
108
